System: PDE IV isolated and purified from guinea pig eosinophils
PROTOCOL_SUMMARY: PDE IV inhibitory activity test
Format: biochemical
MEASUREMENT_CONTEXT: hydrolysis of cAMP by enzyme preparation from guinea pig eosinophils; read-out: 50% Inhibitory Concentration
Mark Criterion met for IC50 under 30 nM, Criterion not met if at or over.

• COc1ccc([C@]2(C#N)CC[C@@H](C(=O)O)CC2)cc1OC1CCCC1 [SB-207499, reference compound] = Criterion met
• Fc1cccc(Oc2ncccc2OCCCc2ccncc2)c1 = Criterion met
• Oc1cnccc1CCCOc1cccnc1Oc1cccc(F)c1 = Criterion not met
• COc1ccc(C2CNC(=O)C2)cc1OC1CCCC1 (stereo not drawn) [Rolipram, reference compound] = Criterion met
• Oc1cncc(CCCOc2cccnc2Oc2cccc(Cl)c2)c1 = Criterion not met
• Oc1cnccc1CCCOc1cccnc1Oc1cccc(Br)c1 = Criterion met
• CC(=O)Oc1cnccc1CCCOc1cccnc1Oc1cccc(Cl)c1 = Criterion not met
• COc1ccc(C(=O)Nc2c(Cl)cncc2Cl)cc1OC1CCCC1 [RP-73401, reference compound] = Criterion met
• Oc1cnccc1CCCOc1cccnc1Oc1ccccc1 = Criterion met

###

ASSAY_READOUT: melting point

• Fc1cccc(Oc2ncccc2OCCCc2ccncc2)c1 = 117 to 118 °C
• c1ccc(Oc2ncccc2OCCCc2ccncc2)cc1 = 97 to 98 °C
• N#Cc1cccc(Oc2ncccc2OCCCc2ccncc2)c1 = 112 to 113 °C
• Brc1cccc(Sc2ncccc2OCCCc2ccncc2)c1 = 89 to 90 °C
• c1ccc(Sc2ncccc2OCCCc2ccncc2)cc1 = 41 to 43 °C

###

System: PDE IV isolated and purified from guinea pig eosinophils
PROTOCOL_SUMMARY: PDE IV inhibitory activity test
Assay type: biochemical
MEASUREMENT_CONTEXT: hydrolysis of cAMP by enzyme preparation from guinea pig eosinophils; read-out: 50% Inhibitory Concentration
ASSAY_READOUT: IC50 (nM)

- Brc1cccc(Sc2ncccc2OCCCc2cccnc2)c1 [Example 3]: 35.6
- Oc1cnccc1CCCOc1cccnc1Oc1cccc(Cl)c1 [Example 31]: 15.7
- Brc1cccc(Oc2ncccc2OCCCc2ccncc2)c1 [Example 35]: 25.8
- Nc1cncc(O)c1CCCOc1cccnc1Oc1cccc(Cl)c1 [Example 69]: 41.2
- Brc1cccc(Sc2ncccc2OCCCc2ccncc2)c1 [Example 7]: 33.7
- c1ccc(Sc2ncccc2OCCCc2ccncc2)cc1 [Example 15]: 9.7
- N#Cc1cccc(Oc2ncccc2OCCCc2ccncc2)c1 [Example 41]: 38.6
- COc1cccc(Sc2ncccc2OCCCc2ccncc2)c1 [Example 14]: 15.3
- CC(=O)Oc1cnccc1CCCOc1cccnc1Cc1cccc(Br)c1 [Example 57]: 22.9
- CS(=O)(=O)Nc1cnccc1CCCOc1cccnc1Oc1cccc(Cl)c1 [Example 70]: 150

###

ASSAY_READOUT: melting point

• Brc1cccc(Oc2ncccc2OCCCc2cccnc2)c1 = 46 to 48 °C
• Oc1cccc(Sc2ncccc2OCCCc2ccncc2)c1 = 158 to 159 °C
• COc1cccc(Sc2ncccc2OCCCc2ccncc2)c1 = 84 to 85 °C

###

Test system: PDE IV isolated and purified from guinea pig eosinophils
PROTOCOL_SUMMARY: PDE IV inhibitory activity test
Assay type: biochemical
MEASUREMENT_CONTEXT: hydrolysis of cAMP by enzyme preparation from guinea pig eosinophils; read-out: 50% Inhibitory Concentration
pIC50: −log10 of the molar value.
ASSAY_READOUT: pIC50

• Oc1cncc(Cl)c1CCCOc1cccnc1Oc1cccc(Cl)c1 = 6.70
• COC(=O)c1cccc(Oc2ncccc2OCCCc2ccncc2)c1 = 7.63
• Brc1cccc(Oc2ncccc2OCCCc2cccnc2)c1 = 7.74
• c1ccc(Oc2ncccc2OCCCc2ccncc2)cc1 = 7.57
• CC(=O)Oc1cnccc1CCCOc1cccnc1Oc1ccccc1 = 8.25
